test system: Huh7 cells containing HCV replicons with an integrated luciferase reporter gene; experiment: HCV Replicon Assay (luciferase reporter); assay type: cell-based; conditions: Hepatitis C virus, Huh-7, 48 h, read-out: EC50 nM
property: EC50

mol=COC(=O)N[C@H](C(=O)N1CCC[C@H]1c1ncc(-c2ccc(-c3ccc(-c4cnc([C@@H]5CCCN5C(=O)Cc5ccccc5)[nH]4)c4ccccc34)cc2)[nH]1)C(C)C property=EC50 result="< 10 nM"
mol=COC(=O)N[C@H](C(=O)N1CCC[C@H]1C(=O)Nc1ccc(C(=O)Nc2ccc(NC(=O)[C@@H]3CCCN3C(=O)Cc3ccccc3)cc2)cc1)C(C)C property=EC50 result="10 to 100 nM"
mol=COC(=O)N[C@H](C(=O)N1CCC[C@H]1C(=O)Nc1ccc(NC(=O)c2ccc(NC(=O)[C@@H]3CCCN3C(=O)Cc3ccccc3)cc2)cc1)C(C)C property=EC50 result="10 to 100 nM"
mol=COC(=O)N[C@H](C(=O)N1CCC[C@H]1C(=O)Nc1ccc(NC(=O)c2ccc(NC(=O)[C@@H]3CCCN3C(=O)[C@@H](NC(=O)OC)C(C)C)cc2)cc1)C(C)C property=EC50 result="10 to 100 nM"
mol=O=C(Cc1ccccc1)N1CCC[C@H]1c1ncc(-c2ccc(-c3ccc(-c4cnc([C@@H]5CCCN5C(=O)Cc5ccccc5)[nH]4)c4ccccc34)cc2)[nH]1 property=EC50 result="< 10 nM"
mol=O=C(Nc1ccc(-c2ccc3nc(NC(=O)[C@@H]4CCCN4C(=O)Cc4ccccc4)ccc3c2)cn1)[C@@H]1CCCN1C(=O)Cc1ccccc1 property=EC50 result="< 10 nM"
